// provenance: paper PMC10469688

test: Plasma pharmacokinetics after single and multiple oral administration of A. paniculata aqueous extract capsules in healthy participants (HPLC-MS/MS, non-compartmental analysis); assay type: in vivo, human; details: human, plasma; multiple oral doses 120 mg × 3 times/day of andrographolide, n = 11, mean ± SD; read-out: AUC(0-inf)
experimental-readout: AUC(0-inf) (ng·h/mL)
Answers are plain numbers, in ng·h/mL.

Prompt: // fetch AUC(0-inf) given entry C=C1CC[C@@H]2[C@](C)(CO[C@@H]3O[C@H](CO)[C@@H](O)[C@H](O)[C@H]3O)CCC[C@@]2(C)[C@@H]1CCC1=CCOC1=O [Neoandrographolide, neoandrographolide]
Response: 128
